- EXPERIMENT: NCI Yeast Anticancer Drug Screen. Data for the bub3 strain (AID 167)
- CONDITION INFO: S. cerevisiae bub3 mutant strain, active compounds read high; at 50.0 µM unless noted
- Protocol: Growth inhibition of yeast strains with defined genetic alterations is measured as a screen for potential anti-cancer activity. Selected strains with alterations in DNA damage repair or cell cycle control were exposed to compounds and growth inhibition was measured relative to vehicle treated controls. The strain used in this assay is bub3
This is part of a sample that, as a whole, favours compounds with a hit. Of some 79,000 tested, about 15% had one in any assay.

| COMPOUND | growth inhibition (%) |
| --- | --- |
| CCOc1ccc(N=Nc2c(-c3ccccc3)nn(C(=O)CC(=O)Nc3ccccc3Cl)c2-c2ccccc2)cc1 | 31 |
| CCCCCC(=O)NNC(=O)CCCCC | -21.8 |
| O=C(Oc1cc2c(cc1Br)OCO2)c1cccc2ccccc12 | 6.95 |
| C=C1C(=O)OC2/C=C(\C)C(O)/C=C\C(C)(O)CC(OC(=O)/C(C)=C/C)C12 (stereo unspecified) | -34.8 |
| O=C(O)Cc1cc(=O)oc2ccccc12 | -6.8 |
| Cc1cccc2c(N3CCN(c4ccccc4)CC3)c3c(nc12)CCCCC3 | 3.2 |

---

- EXPERIMENT: NCI Yeast Anticancer Drug Screen. Data for the sgs1 mgt1 strain (AID 161);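 also: 0% = growth of cultures given vehicle only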
- CONDITION INFO: S. cerevisiae sgs1 mgt1 strain, active compounds read high; at 50.0 µM unless noted
This is part of a sample that, as a whole, favours compounds with a hit. Of some 79,000 tested, about 15% had one in any assay.
QUANTITY KIND: growth inhibition (%)

| COMPOUND | QUANTITY KIND | OBSERVED RESULT |
| --- | --- | --- |
| Clc1ccc2c(c1)C(=P(c1ccccc1)(c1ccccc1)c1ccccc1)c1cc(Cl)cc(Cl)c1-2 | growth inhibition | 66.8 |
| CC/C(CC(=O)CCC(=O)Nc1c(C)cccc1C)=N\NC(=O)NN | growth inhibition | -4.15 |
| O=C(O)c1ccc(Cl)o1 | growth inhibition | -23.1 |
| Clc1cccc(/C=N\N=C\c2cccc(Cl)c2)c1 | growth inhibition | 6.3 |
| O=c1[nH]nc(-c2ccccc2)nc1/C(=N\Nc1ccccc1)c1ccccc1 | growth inhibition | 1.05 |
| CN(C)CC(C(=O)/C=C/c1ccccc1)C(C)(C)C (configuration not stated) | growth inhibition | -16.2 |
| CCCOC(=O)N(C)c1ccccc1 | growth inhibition | 2.95 |

---

- EXPERIMENT: NCI Yeast Anticancer Drug Screen. Data for the mec2-1 strain (AID 157)
- CONDITION INFO: S. cerevisiae mec2-1 strain, active compounds read high; at 50.0 µM unless noted
This is part of a sample that, as a whole, favours compounds with a hit. Of some 79,000 tested, about 15% had one in any assay.
Entries and their measured growth inhibition follow.

| COMPOUND | SCALE UNIT | growth inhibition |
| --- | --- | --- |
| CCC(NN)C(=O)O (stereo not drawn) | % | -14.1 |
| CC1(CI)COC(c2ccccc2)(C2CCCCC2)OC1 (stereo not drawn) | % | -5.15 |
| CC1=C(C(=O)OC(C)(C)C)C(c2ccc([N+](=O)[O-])cc2)C(C(=O)OC(C)(C)C)=C(C)N1 | % | -4.9 |
| C=C1COC(O)(C2OCOC(C3CC(=O)NC(=O)C3)C2O)C1C (stereo not drawn) | % | 91.2 |
| NC(=O)CCCCCCCCC(N)=O | % | 4.95 |
| CC(=O)N1C=CC(=Cc2ccccc2)C=C1 | % | 5.55 |
| O=C1CC(Cc2n[nH]c3c2CCCC3)CC(=O)N1 | % | 3.8 |
| CCCCCCCCCCSCC(=O)O | % | -24.6 |
| CCCCN(CCCC)CC(=O)NC(=O)c1ccccc1 | % | -5.55 |
| COC(=O)c1ccccc1NC(=O)Cc1ccccc1 | % | -27.1 |
| O=C(O)CC(CS(=O)O)C(=O)O (stereo not drawn) | % | -11.2 |
| CSc1cc(Cl)c(C(=O)Nc2ccccc2)cc1S(=O)(=O)n1cc[nH]c1=O | % | -10.6 |
| C/C=C/C=C/C(=O)OCCCC | % | -0.65 |
